Target: human CSNK1D (Homo sapiens, UniProt P48730)
Sequence (P48730 whole entry): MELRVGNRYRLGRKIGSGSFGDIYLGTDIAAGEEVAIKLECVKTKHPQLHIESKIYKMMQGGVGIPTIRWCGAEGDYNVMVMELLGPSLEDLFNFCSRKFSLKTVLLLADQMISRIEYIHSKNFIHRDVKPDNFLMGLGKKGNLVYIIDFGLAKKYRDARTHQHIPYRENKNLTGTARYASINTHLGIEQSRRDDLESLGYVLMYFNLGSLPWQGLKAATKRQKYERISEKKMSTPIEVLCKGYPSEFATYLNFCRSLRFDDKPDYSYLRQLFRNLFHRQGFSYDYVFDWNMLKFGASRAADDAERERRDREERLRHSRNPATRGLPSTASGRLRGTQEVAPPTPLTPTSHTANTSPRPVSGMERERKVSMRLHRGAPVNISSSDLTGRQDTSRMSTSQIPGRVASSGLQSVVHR
Assay: Whole Cell nBRET CSNK1D Binding Assay
Conditions: living CHO cells stably expressing human CSNK1D tagged with nanoluciferase; NanoBret tracer 130 nM; 2 hours at 37 C
Labelling field: enter Yes if recorded IC50 is less than 30 nM. Enter No if it equals or exceeds that cut-off.

Please check: IC50 for Fc1ccc(-c2nn3c(c2-c2c(F)cnc4[nH]ncc24)CC[C@H]2[C@@H]3C2(F)F)nc1 (single isomer, unassigned) [Example 358] , strictly under 30 nM or not?
No

Would you kindly verify if IC50 of Fc1ccc(-c2nn3c(c2-c2ccnc4[nH]ncc24)OCC2(C3)CC2(F)F)cc1 (single isomer, unassigned) [Example 477] is strictly less than 30 nM?
No

Does the reported IC50 of the following compound sit strictly below 30 nM? Cc1nc(-c2c(-c3ccc(F)cc3)nn3c2CC[C@]2(C3)CC2(F)F)c2cn[nH]c2n1 (single isomer, unassigned) [Example 336]
Yes

Please let me know if C[C@H]1Cn2nc(-c3ccc(F)cn3)c(-c3ccnc4[nH]ncc34)c2CO1 (single isomer, unassigned) [Example 86] shows IC50 below 30 nM.
No

Just wondering, is IC50 of [2H]C([2H])([2H])[C@@]1(C(F)(F)F)Cn2nc(-c3ccc(F)cn3)c(-c3ccnc4[nH]ncc34)c2CO1 (single isomer, unassigned) [Example 424] below 30 nM?
No

Does this compound meet the criterion IC50 < 30 nM? CC1COCc2c(-c3ccnc(CO)c3)c(-c3ccc(F)cc3)nn21 (centres unmarked) [Example 90]
No

Hello, I'm reviewing records and need to know if IC50 of CC1(CF)CCc2c(-c3ccn4nccc4c3)c(-c3ccc(F)cn3)nn2C1 (single isomer, unassigned) [Example 289] is below 30 nM. Could you check?
No

Confirm or reject: IC50 of CC(C)C(=O)Nc1cc(-c2c(-c3ccc(F)cn3)nn3c2COC(C)(C)C3)ccn1 [Example 132] lies strictly below 30 nM
Yes

Quick check: IC50 of Cc1cc(-c2c(-c3ccc(Cl)cc3)nn3c2COCC3)c2cn[nH]c2n1 [Example 68] under 30 nM?
No

Take the compound COc1cnccc1-c1c(-c2ccc(F)cn2)nn2c1COC(C)(C)C2 [Example 130] and say whether its IC50 is less than 30 nM.
No

Consider the compound Cc1cc(-c2c(-c3ccc(F)cc3)nn3c2CC2(CC2)C3)c2cn[nH]c2n1 [Example 248] . Is its IC50 strictly less than 30 nM?
Yes

Please let me know if [2H]C([2H])([2H])C1(C([2H])([2H])[2H])Cc2c(-c3ccnc4[nH]ncc34)c(-c3ccc(F)cc3)nn2C1 [Example 241] shows IC50 below 30 nM.
Yes

Dear reviewer, please state whether CC(=O)Nc1cc(-c2c(-c3ccc(F)cc3)nn3c2CC[C@H]2[C@@H]3C2(F)F)ccn1 (stereo in doubt) [Example 350] has IC50 strictly beneath 30 nM.
Yes

Does COCC1(F)CCc2c(-c3cc(C(F)F)nc4[nH]ncc34)c(-c3ccc(F)cn3)nn2C1 (single isomer, unassigned) [Example 306] have IC50 strictly under 30 nM?
No

Values from patent US20230339970A1
